measurement-target: T1, Human hepcidin peptide (hepcidin-25) (human)
T1 construct: Synthetic 25 aa peptide; also called hep-25; Hep-25
T1 peptide: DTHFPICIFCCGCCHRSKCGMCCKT
experiment-summary: titration affinity ELISA, hepcidin 100 ng/well on Nunc Immobilizer Amino plate, CHO supernatant; antibody 12.5 ng/ml
Protocol: FIGS. 17A-C. Titration affinity ELISA of humanized hits. FIG. 17A: Assay layout. […] Concentration of IgG in the supernatant was determined using BioAtla's quantitation ELISA. […] Bound antibodies were detected with anti-human IgG conjugated with HRP (1:2500). The reactions were stopped with 1 N HCl at 1.5 minutes after TMB was added to the wells and read immediately. […] FIG. 17B: OD 450 nm value of the reactions measured with Molecular Device SPECTRAMAX® Plus. […]
outcome-measure: OD 450 nm (OD450)
Quick reminder: number only, in OD450, skip the unit.

Consider the worked cases shown below.
binder	OD 450 nm / OD450
BAP070-hum04 (antibody, V domains shown, Expressed as soluble IgG1 in CHO cells, tested as supernatant; The entries stop inside FR4) VH: QVQLVQSGAEVKKPGASVKVSCKASGYTFTNYGMNWVRQARGQRLEWIGWINTYTGEPTYADDFKGRLTISKDTSKNQVVLTMTNMDPVDTATYYCTTYATSWYWGQG VL: AIQLTQSPSSLSASVGDRVTITCRASESVDSYGNSFMHWFQQRPGQSPRRLIYRASNLESGIPPRFSGSGYGTDFTLTINNIESEDAAYYFCQQSNEDLTFG	2.33
BAP070-hum06 (antibody, IgG1, V domains shown, Expressed as soluble IgG1 in CHO cells, tested as supernatant; The entries stop inside FR4) VH: EVQLVQSGAEVKKPGESLRISCKGSGYTFTNYGMNWIRQPPGKGLEWIGWINTYTGEPTYADDFKGRVTISADKSISTAYLQWSSLKASDTAMYYCTTYATSWYWGQG VL: AIQLTQSPSSLSASVGDRVTITCRASESVDSYGNSFMHWYQQKPGQAPRLLIYRASNLESGVPSRFSGSGSGTDFTFTISSLQPEDIATYYCQQSNEDLTFG	2.12
BAP070-hum01 (antibody, IgG1, V domains shown, Expressed as soluble IgG1 in CHO cells, tested as supernatant; The entries stop inside FR4 (...WGQG / ...FG); also called humanized hit 1) VH: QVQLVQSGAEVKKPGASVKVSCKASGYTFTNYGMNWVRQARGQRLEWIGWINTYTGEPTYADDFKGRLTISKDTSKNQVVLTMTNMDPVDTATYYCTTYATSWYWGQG VL: DIQMTQSPSSLSASVGDRVTITCRASESVDSYGNSFMHWYQQKPGQAPRLLIYRASNLESGVPSRFSGSGSGTDFTFTISSLQPEDIATYYCQQSNEDLTFG	2.26

Now turn to the next binder.
Query: Recorded OD 450 nm of BAP070-hum02 (antibody, IgG1, V domains shown, Expressed as soluble IgG1 in CHO cells, tested as supernatant; The entries stop inside FR4) VH: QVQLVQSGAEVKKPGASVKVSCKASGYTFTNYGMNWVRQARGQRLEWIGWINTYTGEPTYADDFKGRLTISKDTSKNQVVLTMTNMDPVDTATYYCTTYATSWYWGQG VL: AIQLTQSPSSLSASVGDRVTITCRASESVDSYGNSFMHWYQQKPGKAPKLLIYRASNLESGIPARFSGSGSGTEFTLTISSLQSEDFAVYYCQQSNEDLTFG , please.
Result: 2.32
